B1: tRNA (parent)
chain: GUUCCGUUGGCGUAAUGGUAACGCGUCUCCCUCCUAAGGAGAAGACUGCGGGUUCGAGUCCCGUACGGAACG

- Variants of: B1
- Protocol description: yeast fitness, log relative to wild type (ln ratio); higher = fitter; tRNA-Arg(CCU), competitive growth, 37 C, 1 M NaCl
Decide using yeast fitness (ln): a value greater than or equal to -0.2 is yes (1), a smaller one is no (0).

# Variant name, Classification
data = [
    ("U2G C27U C46U C66A A69G A70G", "yes (1)"),
    ("G1A U2G G6A C46U C66U", "yes (1)"),
    ("U2G G6U A69G", "yes (1)"),
    ("G1A U2G G6A A43C A70U", "no (0)"),
    ("G6U C66A", "yes (1)"),
    ("G1A G6A C27U A70G", "no (0)"),
    ("G1A U2G A43C A70G C71U", "no (0)"),
    ("C71U", "yes (1)"),
    ("G1A U2C G6A C46U A69G A70U C71U", "yes (1)"),
    ("G1A A43C C66A C71U", "no (0)"),
    ("G1A G6A C27U A43C A69G A70G", "yes (1)"),
    ("G1A G6U A43C C46U C66U A70G", "no (0)"),
    ("G1A G6U C27U C46U C66U A69G A70U C71U", "no (0)"),
    ("G1A C27U A43C C66U A70G", "no (0)"),
    ("G6A A43C C46U C66U A70G C71U", "yes (1)"),
    ("G1A U2C G6A C27U C46U C71U", "yes (1)"),
    ("U2C C27U A43C A69G A70G", "yes (1)"),
    ("G1A U2G C27U A43C A70U", "yes (1)"),
    ("G1A C27U C46U C66U A70G", "yes (1)"),
    ("G1A A70G C71U", "yes (1)"),
    ("G1A U2G G6A C27U C66U A69G A70U", "no (0)"),
    ("U2C G6A C46U C66A A70G", "yes (1)"),
    ("G1A U2G G6U C27U A70G", "no (0)"),
    ("U2C G6U C27U C46U C66U A69G A70G C71U", "no (0)"),
    ("G1A G6U C27U A43C A69G A70U C71U", "no (0)"),
    ("G1A G6U C27U A43C C46U A70U", "no (0)"),
    ("G1A U2C C27U A70U C71U", "no (0)"),
    ("U2G G6A C27U A70G C71U", "no (0)"),
    ("G1A U2C C27U A69G A70G", "no (0)"),
    ("G1A U2G C27U A70U C71U", "yes (1)"),
    ("U2C C66U A70U", "yes (1)"),
    ("G1A A43C C46U C66A C71U", "yes (1)"),
    ("G1A U2C C66U A69G A70U", "no (0)"),
    ("G1A U2C G6U C27U C46U C66U A69G A70U C71U", "no (0)"),
    ("G1A U2G A43C C46U C66U A69G C71U", "no (0)"),
    ("U2C G6U C46U C66A A69G A70G C71U", "yes (1)"),
    ("G1A U2C G6A C27U", "yes (1)"),
    ("U2G G6A A43C C66U A69G A70G C71U", "no (0)"),
    ("G1A U2G G6A A43C C66U A69G A70U C71U", "no (0)"),
    ("G6U A43C C46U A69G A70G C71U", "no (0)"),
    ("U2C G6U C27U C46U C66A A69G A70G", "yes (1)"),
    ("G1A C27U C46U C66U", "no (0)"),
    ("G1A U2C C46U C66U C71U", "yes (1)"),
]
